Catalogue of Malachite (250 µM) % Inhib. SHIP1 readings, one per entry.
Tested on: recombinant human truncated SHIP1 (tSHIP1)
Test: Malachite green phosphatase release assay, SHIP1
Assay type: biochemical
Conditions: 250 µM compound
Marks after values point to notes of the source that are not given here.

As a guide, the following entries are already answered.
| smilesStr | Malachite (250 µM) % Inhib. SHIP1 |
| --- | --- |
| CSc1ccc2c(c1)c(CCN)c(C)n2Cc1ccc(Cl)cc1Cl.Cl | 32% |
| CNCCc1c(C)n(Cc2ccccc2Cl)c2ccc(SC)cc12 | 0% |
| CSc1ccc2c(c1)c(CCN)c(C)n2Cc1ccccc1Cl.Cl | 7% |
| CSc1ccc2[nH]c(C)c(CCN)c2c1.Cl | 0% |
| CSc1ccc2c(c1)c(CCNS(C)(=O)=O)c(C)n2Cc1ccccc1Cl | −10% |
| CSc1ccc2c(c1)c(CCN(C)C)c(C)n2Cc1ccccc1Cl | 0% |

Q: Specify Malachite (250 µM) % Inhib. SHIP1 for CSc1ccc2c(c1)c(CCN)c(C)n2Cc1ccc(Cl)cc1.Cl and stop.
Result: 0%

Q: Specify Malachite (250 µM) % Inhib. SHIP1 for CSc1ccc2c(c1)c(CCN)c(C)n2Cc1ccc(Br)cc1.Cl and stop.
Result: 3%

Q: Specify Malachite (250 µM) % Inhib. SHIP1 for CSc1ccc2c(c1)c(CCNC(C)=O)c(C)n2Cc1ccccc1Cl and stop.
Result: 25% ^a

Q: Specify Malachite (250 µM) % Inhib. SHIP1 for CSc1ccc2c(c1)c(CCN)c(C)n2Cc1ccccc1.Cl and stop.
Result: 0%

Q: Specify Malachite (250 µM) % Inhib. SHIP1 for CCNCCc1c(C)n(Cc2ccccc2Cl)c2ccc(SC)cc12 and stop.
Result: 1%
